assay info: Oral bioavailability in Sprague-Dawley rat at 10 mg/kg measured upto 24 hrs by LC-MS/MS analysis
test parameters: in vivo
measured parameter: bioavailability (%)
Give your result in % as a bare value.

Look at this molecule and give its reported bioavailability. Cc1cc(Cc2cc(-c3ccc(Br)cc3)on2)cc(C)c1OC(C)(C)C(=O)O
53.3

* * *

test target: Cytochrome P450 2C9 (Homo sapiens)
Sequence (P11712 whole entry): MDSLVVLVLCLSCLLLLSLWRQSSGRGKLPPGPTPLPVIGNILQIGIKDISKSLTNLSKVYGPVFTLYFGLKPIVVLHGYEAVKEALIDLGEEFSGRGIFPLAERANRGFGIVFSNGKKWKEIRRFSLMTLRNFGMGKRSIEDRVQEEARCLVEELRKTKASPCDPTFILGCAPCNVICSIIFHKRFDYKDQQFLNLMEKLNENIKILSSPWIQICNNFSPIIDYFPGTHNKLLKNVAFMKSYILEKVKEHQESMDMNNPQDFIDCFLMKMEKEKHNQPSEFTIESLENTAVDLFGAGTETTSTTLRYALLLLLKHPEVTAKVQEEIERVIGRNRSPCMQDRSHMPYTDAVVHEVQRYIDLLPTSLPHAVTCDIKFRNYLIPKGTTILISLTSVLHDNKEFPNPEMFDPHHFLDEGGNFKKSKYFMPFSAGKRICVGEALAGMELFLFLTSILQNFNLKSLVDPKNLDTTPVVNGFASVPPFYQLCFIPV
measured parameter: pIC50
// field semantics: pIC50 = negative decimal log of concentration (mol/L)

Look at this compound and give its reported pIC50. Cc1cc(Cc2cc(-c3ccc(Br)cc3)on2)cc(C)c1OC(C)(C)C(=O)O
4.70

* * *

assay info: Apparent permeability across basolateral to apical side in human Caco2 cells at 2 uM incubated for 120 mins by LC-MS/MS analysis
Type: ADME, cell-based
test parameters: Caco-2
measured parameter: Papp B→A at 2 h, 2 µM (×10⁻⁶ cm/s)
Give your result in ×10⁻⁶ cm/s as a bare value.

Look at this compound and give its reported Papp B→A at 2 h, 2 µM. Cc1cc(Cc2cc(-c3ccc(Br)cc3)on2)cc(C)c1OC(C)(C)C(=O)O
0.2
